Experiment: DRUGMATRIX: Tumor Necrosis Factor (TNF), Non-Selective radioligand binding (ligand: [125I] TNF-alpha)
Type: cell membranes, Membrane
Conditions Used: u-937; Not Active = under 50% inhibition at 10 µM
Where a SMILES comes first, the peptide text is derived from it. Bridges are numbered along the chain shown (N, C = ends). [ ]: non-standard residue; d: D form. The star is where a group is joined. Threoninol(2S,3R) = C[C@@H](O)[C@H](CO)N*
Parameter Measured: Ki

Worked examples, 4 compounds total:
compound="CCCCN1CCCCC1C(=O)Nc1c(C)cccc1C.Cl (configuration not stated) [BUPIVACAINE HYDROCHLORIDE]" parameter_measured=Ki test_value="Not Active"
compound="CCOC(=O)C(C)(C)Oc1ccc(Cl)cc1 [CLOFIBRATE]" parameter_measured=Ki test_value="Not Active"
compound=COc1ccc2c(c1)c(CC(=O)O)c(C)n2C(=O)c1ccc(Cl)cc1 parameter_measured=Ki test_value="Not Active"
compound=C[C@@H](N)[C@H]1CC[C@H](C(=O)Nc2ccncc2)CC1 parameter_measured=Ki test_value="Not Active"

In plain terms, C[C@@H](O)[C@H](CO)NC(=O)[C@@H]1CSSC[C@H](NC(=O)[C@H](N)Cc2ccccc2)C(=O)N[C@@H](Cc2ccccc2)C(=O)N[C@H](Cc2c[nH]c3ccccc23)C(=O)N[C@@H](CCCCN)C(=O)N[C@@H]([C@@H](C)O)C(=O)N1 (H-[dF]CF[dW]KTC-{Threoninol(2S,3R)}; disulfide 2-7) has a documented Ki of Not Active

In plain terms, CN(C)/N=N/c1[nH]cnc1C(N)=O has a documented Ki of Not Active

In plain terms, CC(=O)Nc1c(I)c(NC(C)=O)c(I)c(C(=O)O)c1I has a documented Ki of Not Active
